SYSTEM: T1, human LIV-1 (human, UniProt Q13433 29-755)
T1 construct: whole, on cells; also called H-LIV1
T1 sequence (looked up): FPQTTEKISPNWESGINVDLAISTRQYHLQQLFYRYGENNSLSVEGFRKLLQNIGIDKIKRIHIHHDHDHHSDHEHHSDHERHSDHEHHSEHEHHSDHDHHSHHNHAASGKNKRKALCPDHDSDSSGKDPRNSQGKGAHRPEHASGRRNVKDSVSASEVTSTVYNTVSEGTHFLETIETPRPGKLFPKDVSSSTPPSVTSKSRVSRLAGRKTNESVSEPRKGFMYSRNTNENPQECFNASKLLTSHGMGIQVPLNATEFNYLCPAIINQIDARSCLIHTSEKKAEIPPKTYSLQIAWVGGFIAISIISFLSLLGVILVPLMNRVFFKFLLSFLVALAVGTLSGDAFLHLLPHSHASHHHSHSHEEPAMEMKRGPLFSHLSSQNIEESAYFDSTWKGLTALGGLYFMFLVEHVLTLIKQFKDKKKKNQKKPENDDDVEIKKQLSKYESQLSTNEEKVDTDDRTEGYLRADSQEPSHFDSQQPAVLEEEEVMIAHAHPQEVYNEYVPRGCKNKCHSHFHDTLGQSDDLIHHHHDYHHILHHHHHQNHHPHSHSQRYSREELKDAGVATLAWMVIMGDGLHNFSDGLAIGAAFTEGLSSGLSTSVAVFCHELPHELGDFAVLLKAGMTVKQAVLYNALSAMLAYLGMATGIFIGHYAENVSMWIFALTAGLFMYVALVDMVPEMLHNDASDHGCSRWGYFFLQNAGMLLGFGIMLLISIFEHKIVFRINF
PROCEDURE_SUMMARY: FACS, HEK293/H_LIV-1 cells
Listed binders paired with reported EC50
Write the value in nM as a bare number.

Some solved entries appear below for comparison.
{"BINDER": "5D6B10.z7-Eribulin (antibody, V domains shown, Eribulin drug moiety conjugated; site and chain not stated, Antibody-drug conjugate of 5D6B10.z7; human gamma 1/kappa) VH: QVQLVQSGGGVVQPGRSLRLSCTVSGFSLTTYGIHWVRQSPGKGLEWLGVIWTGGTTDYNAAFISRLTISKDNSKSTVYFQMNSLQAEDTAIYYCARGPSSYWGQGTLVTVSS VL: EIVMTQSPATLSVSPGERATLSCKASQNVDTNVVWYQQKPGQSPRALIYSASYRYSGVPARFSGSGSGTEFTLTISSLQSEDFAVYFCQQYNNYPWTFGQGTKVEIK", "MEASUREMENT_NAME": "EC50", "READOUT_UNIT": "nM", "MEAS_VALUE": 0.47}
{"BINDER": "5D6B10.z7-MMAE (antibody, V domains shown, MMAE drug moiety conjugated; site and chain not stated, Antibody-drug conjugate of 5D6B10.z7; human gamma 1/kappa) VH: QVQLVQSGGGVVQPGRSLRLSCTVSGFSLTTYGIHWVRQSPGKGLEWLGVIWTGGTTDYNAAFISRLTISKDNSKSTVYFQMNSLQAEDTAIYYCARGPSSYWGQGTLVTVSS VL: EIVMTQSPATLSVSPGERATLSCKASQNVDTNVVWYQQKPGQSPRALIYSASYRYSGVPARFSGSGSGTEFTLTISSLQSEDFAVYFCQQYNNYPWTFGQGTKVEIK", "MEASUREMENT_NAME": "EC50", "READOUT_UNIT": "nM", "MEAS_VALUE": 0.51}

Would you kindly share the measured EC50 for 290F10G10.p1.Z2 (antibody, V domains shown, also called 290F10G10.z2; LM-001) VH: EVQLVQSGAEVKKPGASVKVSCKASGYTFTSYWIHWVRQAPGQGLEWMGTIYPGDADTRSTQKFKDRVTMTADTSTSTVYMELSSLRSEDTAVYYCARSLIHDDYDKYYFDYWGQGTTVTVSS VL: DIQMTQSPSSLSASVGDRVTITCKARQDINKYIAWYQQKPGKAPKLLIHYTSILQPGIPSRFSGSGSGRDYTFTISSLQPEDIATYYCLQYDYFFTFGGGTKVEIK ?
0.7
